The reported numbers originate from paper PMC7327383.

Target: full-length human α1D-adrenoceptor (Homo sapiens)
Sequence (P25100 whole entry): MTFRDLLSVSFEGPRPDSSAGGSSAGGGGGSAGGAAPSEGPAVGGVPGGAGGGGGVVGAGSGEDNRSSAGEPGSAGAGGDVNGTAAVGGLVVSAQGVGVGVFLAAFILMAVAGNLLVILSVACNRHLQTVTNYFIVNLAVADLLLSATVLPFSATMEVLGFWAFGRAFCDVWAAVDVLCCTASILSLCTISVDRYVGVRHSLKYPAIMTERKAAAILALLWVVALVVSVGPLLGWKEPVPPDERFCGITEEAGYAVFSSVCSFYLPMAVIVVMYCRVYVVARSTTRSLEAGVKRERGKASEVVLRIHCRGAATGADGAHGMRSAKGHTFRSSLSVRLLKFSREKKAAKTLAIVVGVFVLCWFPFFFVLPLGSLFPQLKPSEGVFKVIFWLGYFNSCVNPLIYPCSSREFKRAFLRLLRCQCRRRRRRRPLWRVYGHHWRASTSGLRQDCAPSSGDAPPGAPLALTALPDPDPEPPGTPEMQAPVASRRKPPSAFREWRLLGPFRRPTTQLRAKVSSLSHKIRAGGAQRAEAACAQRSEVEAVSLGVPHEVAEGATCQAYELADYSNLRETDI
Assay: [3H]prazosin whole-cell competition binding, CHO-α1D cells
Conditions: percentage of inhibition through first component; control
PROPERTY_NAME: % site 1 α1D (% site 1)

>>> quantitative_readout("CN1CC[C@]2(CCN3CCc4c(oc5ccccc45)[C@@H]3C2)N(C)C1=O.Cl [MK‐912]")
61.2
>>> quantitative_readout("Cc1nc2n(c(=O)c1CCN1CCC(c3noc4cc(F)ccc34)CC1)CCCC2O (stereo not shown) [Paliperidone]")
57.6
>>> quantitative_readout("Cc1ccc(N(CC2=NCCN2)c2cccc(O)c2)cc1 [Phentolamine]")
60.5
>>> quantitative_readout("O=C1NCN(c2ccccc2)C12CCN(CC1COc3ccccc3O1)CC2 (stereo not shown) [Spiroxatrine]")
61.9
>>> quantitative_readout("COc1ccccc1N1CCN(CCN2C(=O)c3ccccc3C(C)(C)C2=O)CC1 [ARC239]")
60.5
>>> quantitative_readout("CC(C(O)c1ccc(O)cc1)N1CCC(Cc2ccccc2)CC1 (stereo not shown) [Ifenprodil]")
48.8
>>> quantitative_readout("O=C1Nc2ccccc2C2=NC(CN3CCN(c4ccccc4)CC3)CN12 (stereo not shown) [2‐PMDQ]")
57.6
>>> quantitative_readout("O=C1c2ccccc2CCC1CNCCc1ccc(O)cc1 (stereo not shown) [HEAT]")
64.1
>>> quantitative_readout("Cc1c[nH]c(=O)n(CCCN2CCN(c3ccccc3OCC(F)(F)F)CC2)c1=O [RS100329]")
70.5
>>> quantitative_readout("COc1cc2nc(N3CCN(C(=O)c4ccco4)[C@H]4CCCC[C@H]43)nc(N)c2cc1OC (racemic) [Cyclazosin]")
56.8

(a) COc1ccccc1N1CCN(CCN2C(=O)CC3(CCCC3)CC2=O)CC1 [BMY7378]
(b) O=C1[C@@H]2[C@H]3CC[C@H](C3)[C@@H]2C(=O)N1C[C@@H]1CCCC[C@H]1CN1CCN(c2nsc3ccccc23)CC1 [Lurasidone]
Query: // max by % site 1 α1D over [ a , b ] The response must carry the label of the picked entry.
Response: a
(a: 57.7 % site 1, b: 24.8 % site 1)

---

Biological target: human α1B-adrenoceptor (Homo sapiens, UniProt P35368)
Construct: CHO cells stably expressing either the full‐length human α1A, α1B, or α1D‐adrenoceptor
Sequence (P35368 whole entry): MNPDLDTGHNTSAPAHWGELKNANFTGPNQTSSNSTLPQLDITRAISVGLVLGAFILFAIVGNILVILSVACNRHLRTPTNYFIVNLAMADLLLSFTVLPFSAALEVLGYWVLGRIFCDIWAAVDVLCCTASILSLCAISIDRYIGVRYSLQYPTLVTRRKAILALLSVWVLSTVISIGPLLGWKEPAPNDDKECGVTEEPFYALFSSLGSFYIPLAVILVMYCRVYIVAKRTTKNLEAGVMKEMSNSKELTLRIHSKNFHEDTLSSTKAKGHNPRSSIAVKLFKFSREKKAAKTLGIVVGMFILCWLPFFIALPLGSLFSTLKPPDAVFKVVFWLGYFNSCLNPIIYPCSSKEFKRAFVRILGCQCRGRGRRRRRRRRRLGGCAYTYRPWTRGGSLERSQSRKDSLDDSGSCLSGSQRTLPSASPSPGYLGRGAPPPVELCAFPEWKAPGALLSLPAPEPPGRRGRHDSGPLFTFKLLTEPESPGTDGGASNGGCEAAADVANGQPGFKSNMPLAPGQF
Experiment: [3H]prazosin whole-cell competition binding, CHO-α1B cells
Settings: ratio of KD values; higher α1B affinity; 1.0 under vs = none
PROPERTY_NAME: Selectivity ratio α1B vs α1D (fold)

Known Selectivity ratio α1B vs α1D results, listed for orientation:
>>> quantitative_readout("COC1(C2=NCCN2)COc2ccccc2O1 (stereo not shown)")
1.4
>>> quantitative_readout("O=C(NC1CCN(CCc2c[nH]c3ccccc23)CC1)c1ccccc1")
3.4
>>> quantitative_readout("CN(CCCN1c2ccccc2CCc2ccccc21)CC(=O)c1ccc(Cl)cc1")
1.2

(I) Cc1ccc(Sc2ccccc2N2CCNCC2)c(C)c1
(II) OCCN1CCN(CCC=C2c3ccccc3Sc3ccc(C(F)(F)F)cc32)CC1
(III) O=C1NCCN1CCN1CCC(c2cn(-c3ccc(F)cc3)c3ccc(Cl)cc23)CC1
(IV) N=C(CC(O)COc1ccccc1-c1ccccc1)N1CCCCC1 (stereo not shown) [AH11110A]
Query: Hey, can you sort those molecules up there by Selectivity ratio α1B vs α1D, smallest first? Thanks in advance for listing the labels in the requested order.
Response: I, II, IV, III
